Target: Butyrylcholinesterase (BuChE) (Rattus norvegicus)
Sequence (Q9JKC1 whole entry): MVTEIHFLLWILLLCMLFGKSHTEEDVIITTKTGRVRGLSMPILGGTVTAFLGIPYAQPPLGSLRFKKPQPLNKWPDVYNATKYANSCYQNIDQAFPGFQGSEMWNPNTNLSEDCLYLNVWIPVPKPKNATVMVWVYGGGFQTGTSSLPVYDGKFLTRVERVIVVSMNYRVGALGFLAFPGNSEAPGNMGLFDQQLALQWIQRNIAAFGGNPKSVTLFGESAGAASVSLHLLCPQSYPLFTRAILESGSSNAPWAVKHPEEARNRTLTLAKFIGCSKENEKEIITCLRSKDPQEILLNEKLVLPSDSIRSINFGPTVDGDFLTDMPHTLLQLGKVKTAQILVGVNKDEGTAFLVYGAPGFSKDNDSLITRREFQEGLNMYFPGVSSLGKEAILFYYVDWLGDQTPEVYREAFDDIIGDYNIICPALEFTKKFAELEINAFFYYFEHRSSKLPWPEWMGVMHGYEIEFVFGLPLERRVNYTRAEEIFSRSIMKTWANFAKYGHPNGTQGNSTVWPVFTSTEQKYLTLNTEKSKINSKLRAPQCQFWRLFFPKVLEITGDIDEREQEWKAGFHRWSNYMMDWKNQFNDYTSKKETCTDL
Experiment: Inhibition of BuChE in rat serum at 50 uM using S-butylthiocholine iodide as substrate by Ellman's method relative to control
Format: cell-free
Conditions: probe S-butylthiocholine iodide
quantityName: inhibition at 50 µM (%)
# value in %; strip the unit string

Study these solved cases before continuing.
molecule="COc1ccccc1CN(C)CCCCC1OC(=O)c2cc(OC)c(OC)cc21 (stereo not given)" resultnumber=21.7
molecule=CCN(CCC/C=C1/OC(=O)c2cc(OC)c(OC)cc21)Cc1ccccc1 resultnumber=11
molecule=CCN(CC)CCC/C=C1/OC(=O)c2cc(OC)c(OC)cc21 resultnumber=4.19
molecule="COc1cc2c(cc1OC)C(CCCCN1CCCCC1)OC2=O (stereo not given)" resultnumber=8.14
molecule="COc1cc2c(cc1OC)C(CCCCCCN(C)Cc1ccccc1)OC2=O (stereo not given)" resultnumber=13.9
molecule=CCN(CCC/C=C1/OC(=O)c2cc(OC)c(OC)cc21)Cc1ccc(N(C)C)cc1 resultnumber=14.1
molecule=COc1ccccc1CN(C)CCC/C=C1\OC(=O)c2cc(OC)c(OC)cc21 resultnumber=16.8
molecule=COc1cc2c(cc1OC)/C(=C/CCCN(C)Cc1ccccc1)OC2=O resultnumber=12.2
molecule="CCCCC1OC(=O)c2ccccc21 (racemic) [RAC-3-N-BUTYLPHTHALIDE]" resultnumber=2.67

Continue with the molecule presented below.
Looking up CCN(CCCCC1OC(=O)c2cc(OC)c(OC)cc21)Cc1ccccc1N(C)C (stereo not given) , I see its inhibition at 50 µM listed as 44.8

----------
Parameter: Papp at 18 h, 100 ug/ml. Scope: all listed entries.
Assay: Permeability of the compound at 100 ug/ml measured after 18 hrs by PAMPA assay
Assay type: ADME
Conditions: read-out: permeability
A bare number is not enough; add the unit after it.

molecule=COc1cc2c(cc1OC)/C(=C\CCCCCN(C)Cc1ccccc1)OC2=O result="10.3 ×10⁻⁶ cm/s"

Reported Papp at 18 h, 100 ug/ml for COc1cc2c(cc1OC)C(CCCCCCN(C)Cc1ccccc1)OC2=O (configuration not stated) was 13.6 ×10⁻⁶ cm/s

----------
Target: UniProt P21397
Sequence (P21397 whole entry): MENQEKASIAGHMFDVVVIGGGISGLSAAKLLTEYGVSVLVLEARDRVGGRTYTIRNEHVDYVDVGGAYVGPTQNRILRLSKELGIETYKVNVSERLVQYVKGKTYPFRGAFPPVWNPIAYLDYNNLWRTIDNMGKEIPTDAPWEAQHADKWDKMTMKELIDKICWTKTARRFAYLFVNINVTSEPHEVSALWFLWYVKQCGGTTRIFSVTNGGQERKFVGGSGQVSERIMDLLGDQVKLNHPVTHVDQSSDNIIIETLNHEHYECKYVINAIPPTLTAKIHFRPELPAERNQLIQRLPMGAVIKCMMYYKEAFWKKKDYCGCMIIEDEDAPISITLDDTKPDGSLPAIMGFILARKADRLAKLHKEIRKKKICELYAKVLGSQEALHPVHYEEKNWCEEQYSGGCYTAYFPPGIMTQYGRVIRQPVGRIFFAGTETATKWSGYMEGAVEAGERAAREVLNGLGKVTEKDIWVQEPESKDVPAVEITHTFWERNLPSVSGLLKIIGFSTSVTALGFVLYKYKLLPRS
Test: Inhibition of recombinant human MAO-A expressed in baculovirus infected BTI insect cells at 10 uM using kynuramine as substrate measured after 30 mins by fluorescence based assay relative to control
Conditions: 0.5 h
Rule: 1.0 for inhibition at 10 µM not less than 20%, 0.0 for anything less.

compound=COc1cc2c(cc1OC)/C(=C/CCCN(C)Cc1ccccc1)OC2=O assignedclass=0.0

Hi, just wondering whether COc1cc2c(cc1OC)C(CCCCN(C)Cc1ccccc1)OC2=O (stereo unspecified) shows inhibition at 10 µM of 20% or higher. 0.0

Dear colleague, could you confirm whether `COc1cc2c(cc1OC)/C(=C\CCCN1CCCCC1)OC2=O` has inhibition at 10 µM at or above 20%? 0.0

Answer whether inhibition at 10 µM of `COc1cc2c(cc1OC)/C(=C\CCCCCN(C)Cc1ccccc1)OC2=O` is greater than or equal to 20%. 1.0

----------
Target: Amine oxidase [flavin-containing] B (Homo sapiens, UniProt P27338)
Sequence (P27338 whole entry): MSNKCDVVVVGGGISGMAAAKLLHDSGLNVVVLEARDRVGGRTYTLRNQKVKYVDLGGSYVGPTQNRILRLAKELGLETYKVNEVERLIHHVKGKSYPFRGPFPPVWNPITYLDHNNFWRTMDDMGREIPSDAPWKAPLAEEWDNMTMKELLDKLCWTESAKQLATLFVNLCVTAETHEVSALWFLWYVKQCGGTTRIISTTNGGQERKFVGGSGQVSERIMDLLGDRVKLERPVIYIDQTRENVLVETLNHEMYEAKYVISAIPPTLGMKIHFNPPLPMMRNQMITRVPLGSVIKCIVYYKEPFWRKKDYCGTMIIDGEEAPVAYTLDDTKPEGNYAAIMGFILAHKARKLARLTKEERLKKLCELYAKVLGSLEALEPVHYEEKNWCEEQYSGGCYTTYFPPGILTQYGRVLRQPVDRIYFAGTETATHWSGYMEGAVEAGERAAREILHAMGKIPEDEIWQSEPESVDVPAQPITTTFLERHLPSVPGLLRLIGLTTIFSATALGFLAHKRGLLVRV
Assay: Inhibition of recombinant human MAO-B expressed in baculovirus infected BTI insect cells at 10 uM using kynuramine as substrate measured after 30 mins by fluorescence based assay relative to control
Details: 0.5 h
Returns one of Y or N; Y when inhibition at 10 µM is >= 20%.

molecule=COc1ccccc1CN(C)CCC/C=C1/OC(=O)c2cc(OC)c(OC)cc21 assaysystem="Amine oxidase [flavin-containing] B (Homo sapiens, UniProt P27338)" assignedclass=N
molecule=CCN(CCC/C=C1\OC(=O)c2cc(OC)c(OC)cc21)Cc1ccc(N(C)C)cc1 assaysystem="Amine oxidase [flavin-containing] B (Homo sapiens, UniProt P27338)" assignedclass=N
molecule=CCN(CCC/C=C1/OC(=O)c2cc(OC)c(OC)cc21)Cc1ccccc1 assaysystem="Amine oxidase [flavin-containing] B (Homo sapiens, UniProt P27338)" assignedclass=N

Could you tell me if the measured inhibition at 10 µM of `COc1cc2c(cc1OC)/C(=C/CCCN1CCCCC1)OC2=O` reaches 20% or more? Y

Identify whether the reported inhibition at 10 µM of the following molecule is 20% or greater: `COc1cc2c(cc1OC)/C(=C\CCCN(C)Cc1ccccc1)OC2=O` N

Quick check: does CCN(CCCCC1OC(=O)c2cc(OC)c(OC)cc21)Cc1ccccc1N(C)C (configuration not stated) have inhibition at 10 µM greater than or equal to 20%? N
